- System: MCF7 breast
- method notes: NCI tumour cell line growth inhibition, 48 h
measurement kind: GI50

Here's what some known entries look like.
The compound `COc1ccc(-c2c(C#N)c(N3CCOCC3)nc3[nH]c(=S)[nH]c(=S)c23)cc1OC` showed GI50 equal to 29.4 µM

The compound `COc1cccc2c1O/C(=C\c1ccc([N+](=O)[O-])s1)C2=O` showed GI50 equal to 2.04 µM

Now consider a different compound.
The compound `CN(C)CCN1CCC(Cc2ccccc2)CC1` showed GI50 equal to > 80 µM

---

- Test system: SNB-78 CNS
- method notes: NCI tumour cell line growth inhibition, 48 h
measurement kind: TGI

Here's what some known entries look like.
The compound `CCC(C)(C)n1c(C)nc2c1C(=O)c1ccccc1C2=O` showed TGI equal to > 100 µM

The compound `COc1ccc(CC(N)=O)cc1OC` showed TGI equal to > 1250 µM

The compound `CC(=O)N/C(=C\c1ccccc1/C=C(\NC(C)=O)c1nc2cc(C)c(C)cc2[nH]1)c1nc2cc(C)c(C)cc2[nH]1` showed TGI equal to > 100 µM

The compound `CN1Nc2ccccc2CC1=O` showed TGI equal to > 100 µM

The compound `CCOC(=O)Cc1csc(Nc2ccccc2[N+](=O)[O-])n1` showed TGI equal to > 100 µM

***
The compound `Cc1nc2c(N)ncnc2o1` showed TGI equal to > 100 µM

---

What TGI was measured for each of the following?
- System: MDA-MB-231 breast
- method notes: NCI tumour cell line growth inhibition, 48 h

Here's what some known entries look like.
Summary line: CCOc1c(OC)cc(-c2nc3n(n2)C(=O)C(CC)S3)cc1OC (stereo unspecified) , MDA-MB-231 breast, reported TGI = > 10 µM

Summary line: `NC(=O)c1cc(I)ccc1NC(=O)/C=C/c1ccccc1` , MDA-MB-231 breast, reported TGI = > 67.2 µM

Summary line: `COc1c(C)c(OCC=C(C)C)cc(CO)c1CO` , MDA-MB-231 breast, reported TGI = > 100 µM

Summary line: `CC1(C)CCc2c(ccc(C(=O)/C=C/c3ccc(O)cc3)c2O)O1` , MDA-MB-231 breast, reported TGI = 18.9 µM

Hey, can you go through the list below and give me TGI for every item?
1. O=c1[nH]c(O)c(C=Nc2ccc(-c3nc4ccccc4o3)cc2)c(=O)[nH]1
2. Cc1ccc2c(c1)c1ccc3c(c1n2C)C(=O)C=CC3=O
3. Cc1cc(OP2(=O)NCc3ncccc3O2)ccc1Cl (stereo unspecified)
4. O=[N+]([O-])c1ccccc1N=Nc1c(O)[nH]c2c(Cl)cc(Cl)cc12
5. CNCCCNc1ccnc2cc(Cl)ccc12

Output:
> 100 µM
6.01 µM
> 100 µM
> 69.3 µM
56.5 µM

Hey, can you go through the list below and give me TGI for every item?
1. O=C(Nc1nc(-c2c[nH]c3ccccc23)cs1)c1n[nH]c(=O)c2ccccc12
2. COc1nc(=O)n(C2C=CC(=O)O2)cc1F (stereo unspecified)

Output:
1. > 100 µM
2. 25.9 µM

---

- Tested on: COLO 205 colon
- method notes: NCI tumour cell line growth inhibition, 48 h
What TGI was measured for each of the following?

Here's what some known entries look like.
The molecule `C/C1=C\[C@H](C)C[C@H](C)OC(=O)[C@H](C)NC(=O)[C@@H](Cc2ccc(O)c(Br)c2)N(C)C(=O)[C@H](C)NC(=O)[C@@H](C)C1` showed TGI equal to > 25 µM

The molecule CSC[C@H](NC(=O)COc1cccc2cnccc12)C(=O)NC(Cc1ccccc1)C(O)C(=O)N1CSC[C@H]1C(=O)NC(C)(C)C (some centres undefined) showed TGI equal to > 100 µM

The molecule `CCN(Cc1c(F)cccc1OC)c1ccc(CO)c(Cl)c1` showed TGI equal to 7.43 µM

Now consider a different molecule.
The molecule `COc1cc(O)c2c(=O)c(OC)c(-c3ccc(OC)c(O)c3)oc2c1` showed TGI equal to > 100 µM
